- Tested on: KRAS PDC multicell spheroid viability;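 further: spheroids exposed to compounds for 7 days; 100% = DMSO vehicle control viability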
- protocol: Anticancer human tumor 825966-067-R-J1-PDC patient-derived colon carcinoma cell line growth inhibition [KRAS2]
- particulars: second compound 0.316 µM; first compound 0.01 µM; stronger effect = lower value
reported metric: viability, T/C (%)
Express the result in % but write the number alone.

Bench note, KRAS PDC multicell spheroid viability: CC1COCCN1c1cc(-c2ccnn2C)c2ccnc(-c3ccn[nH]3)c2n1 (stereo unspecified) + COc1cc2nc(C)nc(NC(C)c3cc(N)cc(C(F)(F)F)c3)c2cc1OC1CCOC1 , viability, T/C reads 112

Bench note, KRAS PDC multicell spheroid viability: CC(C)n1nc(-c2ccc3oc(N)nc3c2)c2c(N)ncnc21 + CC1OCC2(CCN(c3cnc(Sc4ccnc(N)c4Cl)c(N)n3)CC2)C1N , viability, T/C reads 166

Bench note, KRAS PDC multicell spheroid viability: CN(C)C/C=C/C(=O)Nc1cc2c(Nc3ccc(F)c(Cl)c3)ncnc2cc1O[C@H]1CCOC1 + COc1cc2nc(C)nc(NC(C)c3cc(N)cc(C(F)(F)F)c3)c2cc1OC1CCOC1 , viability, T/C reads 98.9

Bench note, KRAS PDC multicell spheroid viability: CC(=O)Nc1cccc(-n2c(=O)n(C3CC3)c(=O)c3c(Nc4ccc(I)cc4F)n(C)c(=O)c(C)c32)c1 + C=CC(=O)N1CCN(c2nc(=O)n(-c3c(C)ccnc3C(C)C)c3nc(-c4c(O)cccc4F)c(F)cc23)C(C)C1 , viability, T/C reads 95.6

Bench note, KRAS PDC multicell spheroid viability: Cn1ncnc1[C@H]1c2n[nH]c(=O)c3cc(F)cc(c23)N[C@@H]1c1ccc(F)cc1 + C=CC(=O)N1CCN(c2nc(OCC3CCCN3C)nc3c2CCN(c2cccc4cccc(C)c24)C3)CC1CC#N , viability, T/C reads 88.1

Bench note, KRAS PDC multicell spheroid viability: CN(C)C/C=C/C(=O)Nc1cc2c(Nc3ccc(F)c(Cl)c3)ncnc2cc1O[C@H]1CCOC1 + CC1OCC2(CCN(c3cnc(Sc4ccnc(N)c4Cl)c(N)n3)CC2)C1N , viability, T/C reads 79.1

Bench note, KRAS PDC multicell spheroid viability: CC(=O)Nc1cccc(-n2c(=O)n(C3CC3)c(=O)c3c(Nc4ccc(I)cc4F)n(C)c(=O)c(C)c32)c1 + C=CC(=O)N1CCN(c2nc(OCC3CCCN3C)nc3c2CCN(c2cccc4cccc(C)c24)C3)CC1CC#N , viability, T/C reads 92.1

Bench note, KRAS PDC multicell spheroid viability: CN(C)C/C=C/C(=O)Nc1cc2c(Nc3ccc(F)c(Cl)c3)ncnc2cc1O[C@H]1CCOC1 + C=CC(=O)N1CCN(c2nc(=O)n(-c3c(C)ccnc3C(C)C)c3nc(-c4c(O)cccc4F)c(F)cc23)C(C)C1 , viability, T/C reads 101

Bench note, KRAS PDC multicell spheroid viability: CC1COCCN1c1cc(-c2ccnn2C)c2ccnc(-c3ccn[nH]3)c2n1 (stereo unspecified) + CC1OCC2(CCN(c3cnc(Sc4ccnc(N)c4Cl)c(N)n3)CC2)C1N , viability, T/C reads 125

Bench note, KRAS PDC multicell spheroid viability: CC(C)n1nc(-c2ccc3oc(N)nc3c2)c2c(N)ncnc21 + CNCc1ccccc1-c1csc(C(C)Nc2nc(C)nc3cc(OC)c(OC)cc23)c1 , viability, T/C reads 136

Bench note, KRAS PDC multicell spheroid viability: CN(C)C/C=C/C(=O)Nc1cc2c(Nc3ccc(F)c(Cl)c3)ncnc2cc1O[C@H]1CCOC1 + C=CC(=O)N1CCN(c2nc(OCC3CCCN3C)nc3c2CCN(c2cccc4cccc(C)c24)C3)CC1CC#N , viability, T/C reads 83.8

Value source: PubChem BioAssay AID1963865
